- MEASURED TARGET: CYP3A4 (Homo sapiens, UniProt P08684)
- Construct: purchased ThermoFisher Scientific Cat. no; 2856
- Sequence (P08684 whole entry): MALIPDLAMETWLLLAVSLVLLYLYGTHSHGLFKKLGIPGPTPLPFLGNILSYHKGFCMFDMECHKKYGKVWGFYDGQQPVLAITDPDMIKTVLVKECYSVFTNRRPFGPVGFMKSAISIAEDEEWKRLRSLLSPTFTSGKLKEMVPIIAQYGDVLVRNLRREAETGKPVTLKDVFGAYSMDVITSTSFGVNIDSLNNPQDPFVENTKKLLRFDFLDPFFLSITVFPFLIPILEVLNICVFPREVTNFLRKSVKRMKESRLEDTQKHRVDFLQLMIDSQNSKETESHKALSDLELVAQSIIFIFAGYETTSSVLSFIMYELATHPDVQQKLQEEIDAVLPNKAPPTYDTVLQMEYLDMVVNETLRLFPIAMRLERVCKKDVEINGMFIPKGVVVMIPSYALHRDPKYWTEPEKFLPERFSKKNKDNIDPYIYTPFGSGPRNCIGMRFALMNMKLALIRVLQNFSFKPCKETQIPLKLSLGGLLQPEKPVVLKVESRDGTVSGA
- EXPERIMENT: Vivid CYP3A4 Red Screening Kit fluorimetric inhibition assay (BOMR substrate)
- Assay type: biochemical
- STATED CONDITIONS: human, recombinant enzyme, pH 8, CYP3A4 Inhibition (%) (50 µmol/L)
MEASUREMENT LABEL: inhibition at 30 min, 50 µmol/L (%)

[
  {
    "MOLECULE": "O=c1cc(-c2ccc(O)cc2)oc2cc(O)cc(O)c12",
    "READING QUALIFIER": "=",
    "READOUT NUMBER": 23
  },
  {
    "MOLECULE": "O=c1c(O)c(-c2ccc(O)c(O)c2)oc2c(O)c(O)cc(O)c12",
    "READING QUALIFIER": "≥",
    "READOUT NUMBER": 50
  },
  {
    "MOLECULE": "O=c1c(O)c(-c2cc(O)c(O)c(O)c2)oc2cc(O)cc(O)c12",
    "READING QUALIFIER": "=",
    "READOUT NUMBER": 32
  },
  {
    "MOLECULE": "O=c1cc(-c2ccccc2)oc2cc(O)cc(O)c12",
    "READING QUALIFIER": "=",
    "READOUT NUMBER": 28
  }
]

====

- MEASURED TARGET: CYP3A4 (Homo sapiens, UniProt P08684)
- Construct: purchased ThermoFisher Scientific Cat. no; 2856
- EXPERIMENT: Vivid CYP3A4 Red Screening Kit fluorimetric inhibition assay (BOMR substrate)
- Assay type: biochemical
- STATED CONDITIONS: human, recombinant human CYP3A4 Baculosomes, pH 8, probe Vivid BOMR substrate, 50 µmol/L compound; BOMR substrate; mean ± SEM; negative = activation; read-out: CYP3A4 Inhibition (%) (50 µmol/L)
MEASUREMENT LABEL: inhibition at 30 min, 50 µmol/L (%)

[
  {
    "MOLECULE": "O=c1c(O)c(-c2ccc(O)c(O)c2)oc2cc(O)cc(O)c12",
    "MEASURED TARGET": "CYP3A4 (Homo sapiens, UniProt P08684)",
    "MEASUREMENT LABEL": "inhibition at 30 min, 50 µmol/L",
    "READING QUALIFIER": "≥",
    "READOUT NUMBER": 50
  },
  {
    "MOLECULE": "O=C1C[C@@H](c2ccc(O)cc2)Oc2cc(O)cc(O)c21",
    "MEASURED TARGET": "CYP3A4 (Homo sapiens, UniProt P08684)",
    "MEASUREMENT LABEL": "inhibition at 30 min, 50 µmol/L",
    "READING QUALIFIER": "=",
    "READOUT NUMBER": -11
  },
  {
    "MOLECULE": "O=c1cc(-c2ccc(O)c(O)c2)oc2cc(O)cc(O)c12",
    "MEASURED TARGET": "CYP3A4 (Homo sapiens, UniProt P08684)",
    "MEASUREMENT LABEL": "inhibition at 30 min, 50 µmol/L",
    "READING QUALIFIER": "≥",
    "READOUT NUMBER": 50
  },
  {
    "MOLECULE": "O=c1c(O)c(-c2ccc(O)cc2)oc2cc(O)ccc12",
    "MEASURED TARGET": "CYP3A4 (Homo sapiens, UniProt P08684)",
    "MEASUREMENT LABEL": "inhibition at 30 min, 50 µmol/L",
    "READING QUALIFIER": "=",
    "READOUT NUMBER": 38
  },
  {
    "MOLECULE": "O=c1c(O)c(-c2ccc(O)cc2O)oc2cc(O)cc(O)c12",
    "MEASURED TARGET": "CYP3A4 (Homo sapiens, UniProt P08684)",
    "MEASUREMENT LABEL": "inhibition at 30 min, 50 µmol/L",
    "READING QUALIFIER": "=",
    "READOUT NUMBER": 38
  },
  {
    "MOLECULE": "O=c1cc(-c2ccccc2)oc2ccccc12",
    "MEASURED TARGET": "CYP3A4 (Homo sapiens, UniProt P08684)",
    "MEASUREMENT LABEL": "inhibition at 30 min, 50 µmol/L",
    "READING QUALIFIER": "=",
    "READOUT NUMBER": -179
  },
  {
    "MOLECULE": "O=c1c(O)c(-c2ccc(O)cc2)oc2cc(O)cc(O)c12",
    "MEASURED TARGET": "CYP3A4 (Homo sapiens, UniProt P08684)",
    "MEASUREMENT LABEL": "inhibition at 30 min, 50 µmol/L",
    "READING QUALIFIER": "=",
    "READOUT NUMBER": 24
  },
  {
    "MOLECULE": "O=c1c(O)c(-c2ccc(O)c(O)c2)oc2cc(O)ccc12",
    "MEASURED TARGET": "CYP3A4 (Homo sapiens, UniProt P08684)",
    "MEASUREMENT LABEL": "inhibition at 30 min, 50 µmol/L",
    "READING QUALIFIER": "=",
    "READOUT NUMBER": 30
  },
  {
    "MOLECULE": "O=c1c(O)c(-c2ccccc2)oc2cc(O)cc(O)c12",
    "MEASURED TARGET": "CYP3A4 (Homo sapiens, UniProt P08684)",
    "MEASUREMENT LABEL": "inhibition at 30 min, 50 µmol/L",
    "READING QUALIFIER": "=",
    "READOUT NUMBER": 4
  }
]

Each recorded value in this set is attributed to paper PMC11940229.
